# Test system: FaDu
# Test Protocol: mitochondrial oxygen consumption rate normalised to cell number, Z score over the library; higher = higher oxygen consumption (negative = OCR reduction)
# Condition Context: treatment time 24 h; assay medium: 5 mM galactose, 5 mM pyruvate, 4 mM glutamine; 10 µM
In all, about 1,600 compounds were measured (“mitochondrial oxygen consumption rate normalised to cell number, Z score over the library”: median about 0.065, lowest 2% from about -2.2 on). This excerpt belongs to a sample that is enriched for the lowest values.
# binarize mitochondrial oxygen consumption rate normalised: threshold -0.6 inclusive, high side 1, low side 0

Molecule: O=C(CCCCCCCC(=O)NCCO)NCCO
Assigned Label: 1
--
Molecule: Nc1c2ccccc2nc2ccccc12
Assigned Label: 0
--
Molecule: Nc1ccc2cc3ccc(N)cc3nc2c1
Assigned Label: 0
--
Molecule: CCN[C@@H]1C[C@H](N)[C@@H](O[C@H]2OC(CN)=CC[C@H]2N)[C@H](O)[C@H]1O[C@H]1OC[C@](C)(O)[C@H](NC)[C@H]1O
Assigned Label: 1
--
Molecule: CC1CC2C3CCC4=CC(=O)C=CC4(C)C3(F)C(O)CC2(C)C1C(=O)CO (centres undefined)
Assigned Label: 1
--
Molecule: NC(=O)NS(=O)(=O)c1ccc(N)cc1
Assigned Label: 1
--
Molecule: NC[C@H]1O[C@H](O[C@H]2[C@H](O[C@@H]3O[C@H](CO)[C@@H](O)[C@H]3O)[C@@H](O)[C@H](N)C[C@@H]2N)[C@H](N)[C@@H](O)[C@@H]1O
Assigned Label: 1
--
Molecule: O.O.O.O.O=C([O-])CC(O)(CC(=O)[O-])C(=O)[O-].[Li+].[Li+].[Li+]
Assigned Label: 1
--
Molecule: CCCCC(CC)CN=C(N)N=C(N)NCCCCCCNC(N)=NC(N)=NCC(CC)CCCC (centres undefined)
Assigned Label: 0
